molecular target: Myeloperoxidase (MPO) (Homo sapiens, UniProt P05164)
Sequence (P05164 165-273): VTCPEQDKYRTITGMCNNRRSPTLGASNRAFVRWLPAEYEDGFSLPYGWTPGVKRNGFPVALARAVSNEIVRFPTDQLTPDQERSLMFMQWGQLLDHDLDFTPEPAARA
Sequence (P05164 279-745): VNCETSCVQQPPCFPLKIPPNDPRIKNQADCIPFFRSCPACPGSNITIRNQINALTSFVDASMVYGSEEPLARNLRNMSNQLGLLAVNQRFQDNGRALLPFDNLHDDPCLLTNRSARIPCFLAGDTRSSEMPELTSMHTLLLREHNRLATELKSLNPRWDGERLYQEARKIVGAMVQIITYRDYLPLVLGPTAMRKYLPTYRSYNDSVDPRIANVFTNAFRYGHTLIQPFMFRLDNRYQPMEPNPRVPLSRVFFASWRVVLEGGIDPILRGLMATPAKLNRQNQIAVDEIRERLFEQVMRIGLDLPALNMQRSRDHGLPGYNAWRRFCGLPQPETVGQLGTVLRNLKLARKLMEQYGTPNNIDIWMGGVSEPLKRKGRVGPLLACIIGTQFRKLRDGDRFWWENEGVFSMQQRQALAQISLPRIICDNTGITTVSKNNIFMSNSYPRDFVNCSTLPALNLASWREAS
RECORDED METRIC: pIC50
Numbers only, as −log10 of the molar value.

>  <COMPOUND>
COc1ccc2c(c1)c(CC(=O)O)c(C)n2C(=O)c1ccc(Cl)cc1 [indomethacin, reference compound]

>  <RECORDED METRIC>
pIC50

>  <REPORTED>
4.54

$$$$
>  <COMPOUND>
N/C(=C/c1cc(O)ccc1O)C(=O)O [2h, (E)-(2,5-dihydroxy)-α-aminocinnamic acid]

>  <RECORDED METRIC>
pIC50

>  <REPORTED>
4.59

$$$$

In the following, a different compound is considered.
Quick one: pIC50 for Nc1ccc(O)c(C(=O)O)c1 [5-ASA, 5-aminosalicylic acid, reference compound] ? 4.41
